The origin of these recorded values is patent US20110105457A1.

Below are molecules with their pKi as measured on UniProt:P48736.
In textbook form, pKi equals minus log to base ten of the concentration in mol/L.

{"compound_structure": "COc1cncc(-c2ccc3nc(NC(=O)NCC(=O)O)cn3n2)c1", "target_under_test": "UniProt:P48736", "observed_value": 7.13}

Here is another molecule to look at.
Task: Look at this molecule and give its reported pKi. COc1cccc(-c2ccc3nc(NC(=O)NCC(=O)O)cn3n2)c1
Result: 7.34

* * *

# target_under_test: PI-3 kinase γ (Homo sapiens, UniProt P48736)
# Sequence (P48736 whole entry): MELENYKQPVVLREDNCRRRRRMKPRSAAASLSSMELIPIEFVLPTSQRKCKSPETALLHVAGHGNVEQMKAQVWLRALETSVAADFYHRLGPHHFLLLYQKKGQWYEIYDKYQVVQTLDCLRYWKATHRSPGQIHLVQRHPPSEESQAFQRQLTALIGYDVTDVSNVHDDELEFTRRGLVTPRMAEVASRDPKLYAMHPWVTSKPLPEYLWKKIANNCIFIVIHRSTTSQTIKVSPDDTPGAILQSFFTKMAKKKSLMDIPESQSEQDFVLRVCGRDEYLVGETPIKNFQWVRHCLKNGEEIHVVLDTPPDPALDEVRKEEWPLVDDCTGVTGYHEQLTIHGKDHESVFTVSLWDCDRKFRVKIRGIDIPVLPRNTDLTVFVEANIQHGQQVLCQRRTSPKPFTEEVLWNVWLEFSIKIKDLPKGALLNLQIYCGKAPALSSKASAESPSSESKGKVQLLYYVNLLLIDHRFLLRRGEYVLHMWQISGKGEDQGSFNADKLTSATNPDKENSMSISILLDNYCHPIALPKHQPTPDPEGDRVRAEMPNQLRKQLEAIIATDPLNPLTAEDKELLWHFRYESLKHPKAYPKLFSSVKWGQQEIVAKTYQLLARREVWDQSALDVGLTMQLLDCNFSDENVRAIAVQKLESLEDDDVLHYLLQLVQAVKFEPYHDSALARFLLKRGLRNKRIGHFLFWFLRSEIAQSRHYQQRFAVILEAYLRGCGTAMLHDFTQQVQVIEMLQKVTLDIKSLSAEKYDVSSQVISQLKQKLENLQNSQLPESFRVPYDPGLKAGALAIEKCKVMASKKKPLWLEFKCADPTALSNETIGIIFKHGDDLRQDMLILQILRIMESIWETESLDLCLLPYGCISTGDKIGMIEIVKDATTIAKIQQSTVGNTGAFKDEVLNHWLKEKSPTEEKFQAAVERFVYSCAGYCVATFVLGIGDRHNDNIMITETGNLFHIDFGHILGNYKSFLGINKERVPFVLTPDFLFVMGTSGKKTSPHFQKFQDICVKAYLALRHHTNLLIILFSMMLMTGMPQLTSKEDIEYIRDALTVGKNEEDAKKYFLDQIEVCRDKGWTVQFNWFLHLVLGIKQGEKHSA
# protocol_description: PI3Kγ inhibitory activity, PI3-kinase HTRF assay (Millipore)
# Assay type: biochemical
# setup_conditions: 0.5 h; compound 50 μM; read-out: Inhibition ratio % (50 μM)
Assign yes to entries whose inhibition at 50 µM meets or exceeds 70%; assign no to the rest.

Some solved entries appear below for comparison.
{"compound_structure": "CNC(=O)Nc1cn2nc(C(=O)Nc3cccc(C(=O)O)c3)ccc2n1", "class_assignment": "no"}
{"compound_structure": "CNC(=O)Nc1cn2nc(-c3cccc(S(C)(=O)=O)c3)ccc2n1", "class_assignment": "yes"}
{"compound_structure": "CNC(=O)Nc1cn2nc(-c3cccc(OC(C)=O)c3)ccc2n1", "class_assignment": "no"}
{"compound_structure": "CNC(=O)Nc1cn2nc(Nc3cccc(OCc4ccccc4)c3)ccc2n1", "class_assignment": "yes"}
{"compound_structure": "CCOC(=O)CNC(=O)Nc1cn2nc(-c3cccc(OC)c3)ccc2n1", "class_assignment": "yes"}

Task: Dear colleague, could you confirm whether CNC(=O)Nc1cn2nc(N3CCOC3=O)ccc2n1 has inhibition at 50 µM at or above 70%?
Result: no

Task: Dear colleague, could you confirm whether CCCCNC(=O)Nc1cn2nc(-c3cccc(OC)c3)ccc2n1 has inhibition at 50 µM at or above 70%?
Result: yes

Task: Dear colleague, could you confirm whether COc1cccc(-c2ccc3nc(NC(=O)c4cccc(N5CCOCC5)c4)cn3n2)c1 has inhibition at 50 µM at or above 70%?
Result: yes

* * *

# target_under_test: PI-3 kinase γ (Homo sapiens)
# protocol_description: PI3Kγ inhibitory activity, PI3-kinase HTRF assay (Millipore)
# Type: biochemical
# setup_conditions: 0.5 h; compound 50 μM; read-out: Inhibition ratio % (50 μM)
measurement_name: inhibition at 50 µM (%)
Give the quantity in %, number only.

In the examples that follow, each entry is paired with its recorded inhibition at 50 µM.
{"compound_structure": "CNC(=O)Nc1cn2nc(C(=O)c3cccc(OC)c3)ccc2n1", "measurement_name": "inhibition at 50 µM", "measurement_unit": "%", "observed_value": 76}
{"compound_structure": "CNC(=O)Nc1cn2nc(/C=C/c3ccccc3)ccc2n1", "measurement_name": "inhibition at 50 µM", "measurement_unit": "%", "observed_value": 78}
{"compound_structure": "CNC(=O)Nc1cn2nc(-c3ccc(-c4ccccc4)s3)ccc2n1", "measurement_name": "inhibition at 50 µM", "measurement_unit": "%", "observed_value": 65}
{"compound_structure": "CNC(=O)Nc1cn2nc(-c3cccc(C(=O)NC(C)C)c3)ccc2n1", "measurement_name": "inhibition at 50 µM", "measurement_unit": "%", "observed_value": 79}

Task: Look at this molecule and give its reported inhibition at 50 µM. CNC(=O)Nc1cn2nc(Nc3cccc(N(C)C)c3)ccc2n1
Result: 102
